ASSAY_REMARKS: chemical genetic growth profiling, strain panel (AID 1159580);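 further: tested at 20 µM; growth read once vehicle control cultures reached saturation at 30 °C; 1 = growth at the plate median or of vehicle wells; lower values mean less growth of the strain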
RECORDED_CONDITIONS: S. cerevisiae deletion strains, growth OD, locus YDL101C, strain DUN1, active compounds read low
Hit rate of the full screen: of about 5,500 compounds, about 2,000 (36%) were called active. Another 18% or so got no clear call; they are omitted. The list shows a part of the results.
RESULT_TYPE: normalized growth
Output: the number by itself.

MOLECULE: CO[C@H]1CC(O[C@@H]2/C(C)=C/C[C@@H]3C[C@@H](C[C@]4(CC[C@H](C)[C@@H](C5CCCCC5)O4)O3)OC(=O)[C@@H]3C=C(C)/C(=N\O)[C@H]4OC/C(=C\C=C\[C@@H]2C)[C@]43O)O[C@@H](C)C1O (some centres undefined)
RESULT_TYPE: normalized growth
EXPERIMENTAL_VALUE: 0.979

Could you share which normalized growth value was measured for CC(=O)O[C@@H]1C=C[C@@]2(C)C(C[C@@H](OC(C)=O)[C@@]3(C)C4=CC(=O)O[C@@H](c5ccoc5)[C@]4(C)CCC23)C1(C)C (some centres undefined) ?
0.998

Cool, now O=c1[nH]cnc2ccsc12
1

Cool, now CN(C)[C@@H]1C(=O)C(C(N)=O)=C(O)[C@@]2(O)C(=O)C3=C(O)c4c(O)cccc4[C@@](C)(O)[C@H]3[C@H](O)[C@@H]12
1.01

Cool, now CC(C)CC1NC(=O)CNC1=O (centres undefined)
0.974

Cool, now Clc1ccc(Sc2ncnc3ccsc23)cc1
0.959

Cool, now CC(C)CC(NC(=O)OCC1c2ccccc2-c2ccccc21)C(=O)O (centres undefined)
1.02

Cool, now Clc1ccc(SCc2ccsc2-c2ncns2)cc1
0.954

Cool, now C=C1c2cccc(O)c2C(O)=C2C(=O)[C@]3(O)C(O)=C(C(N)=O)C(=O)[C@@H](N(C)C)[C@@H]3[C@@H](O)[C@H]12
0.978

* * *

ASSAY_REMARKS: chemical genetic growth profiling, strain panel (AID 1159580)
RECORDED_CONDITIONS: S. cerevisiae deletion strains, growth OD, locus YJR066W, strain TOR1, active compounds read low
In all, about 5,500 compounds went through this assay and about 2,000 (36%) were called active. Not shown: some 18% with an inconclusive outcome. The list shows a part of the results.
RESULT_TYPE: normalized growth
Output: the number by itself.

COMPOUND: CC(C)=CCc1c2c(c3occ(-c4ccc(O)cc4)c(=O)c3c1O)C=CC(C)(C)O2
EXPERIMENTAL_VALUE: 0.906

Could you share which normalized growth value was measured for CS(=O)(=O)Nc1ccc([N+](=O)[O-])cc1Oc1ccccc1 ?
0.962

Cool, now CC(C)=CCc1c2c(c3occ(-c4ccc(O)c(O)c4)c(=O)c3c1O)C=CC(C)(C)O2
0.885

Cool, now C/C=C\C1=C(C(=O)O)N2C(=O)C(NC(=O)C(N)c3ccc(O)cc3)C2SC1 (centres undefined)
0.982

* * *

ASSAY_REMARKS: chemical genetic growth profiling, strain panel (AID 1159580)
RECORDED_CONDITIONS: S. cerevisiae deletion strains, growth OD, locus YDR069C, strain doa4, active compounds read low
The campaign covered roughly 5,500 compounds. About 2,000 (36%) were called active. Inconclusive results (about 18%) are left out. The list shows a part of the results.
RESULT_TYPE: normalized growth

Could you share which normalized growth value was measured for COC1CC2CCC(C)C(O)(O2)C(=O)C(=O)N2CCCCC2C(=O)OC(C(C)CC2CCC(O)C(OC)C2)CC(=O)C(C)/C=C(\C)C(O)C(OC)C(=O)C(C)CC(C)/C=C/C=C/C=C/1C (stereo not given) ?
0.0638 (active)

Cool, now CCC(C)[C@H]1O[C@]2(C=C[C@@H]1C)C[C@@H]1C[C@@H](C/C=C(\C)[C@@H](OC3C[C@H](OC)C(O[C@H]4C[C@H](OC)[C@@H](O)[C@H](C)O4)[C@H](C)O3)[C@@H](C)/C=C/C=C3\CO[C@@H]4[C@H](O)C(C)=C[C@@H](C(=O)O1)[C@]34O)O2 (stereo not given in full)
1.02 (inactive)

Cool, now NS(=O)(=O)c1cc2c(cc1Cl)NC(CSCc1ccccc1)=NS2(=O)=O
1.04 (inactive)

Cool, now NC(=O)NC(=O)Cc1ccccc1
0.99 (inactive)

Cool, now CCOC(=O)[C@H](CCc1ccccc1)N[C@@H](C)C(=O)N1CCC[C@H]1C(=O)O
0.984 (inactive)

Cool, now CN(C)C(=O)Oc1cccc([N+](C)(C)C)c1
0.978 (inactive)

Cool, now O=C(OOC(=O)c1ccccc1)c1ccccc1
0.965 (inactive)

Cool, now CCCSc1ccc2nc(NC(=O)OC)[nH]c2c1
0.998 (inactive)

Cool, now CN1CCN(C(=O)OC2c3nccnc3C(=O)N2c2ccc(Cl)cn2)CC1 (stereo not given)
0.991 (inactive)

* * *

ASSAY_REMARKS: chemical genetic growth profiling, strain panel (AID 1159580)
RECORDED_CONDITIONS: S. cerevisiae deletion strains, growth OD, locus YNL271C, strain bni1, active compounds read low
In all, about 5,500 compounds went through this assay and about 2,000 (36%) were called active. Not shown: some 18% with an inconclusive outcome. The list shows a part of the results.
Listed here: items and their measured normalized growth.
Output: the number by itself.

Check out these entries, answers already filled in.
MOLECULE: CC(C)=CCCC(C)C1CC[C@@]2(C)C3=C(CC[C@]12C)C1(C)CC[C@H](O)C(C)(C)C1CC3 (stereo partly drawn)
normalized growth: 0.994
//
MOLECULE: C=C1c2cccc(O)c2C(O)=C2C(=O)[C@]3(O)C(O)=C(C(N)=O)C(=O)[C@@H](N(C)C)[C@@H]3[C@@H](O)[C@H]12
normalized growth: 0.954
//
MOLECULE: CC(C)CCCC(C)C1CCC2C3C[C@@H](O)[C@@]4(O)C[C@@H](O)CC[C@]4(C)C3CC[C@]12C (stereo partly drawn)
normalized growth: 1.02
//
MOLECULE: CN(C)[C@@H]1C(=O)C(C(N)=O)=C(O)[C@@]2(O)C(=O)C3=C(O)c4c(O)cccc4[C@@](C)(O)[C@H]3[C@H](O)[C@@H]12
normalized growth: 0.984
//
MOLECULE: COC(=O)c1c(C)c2c(c(C)c1O)OC(=O)c1c(C)c(Cl)c(O)c(Cl)c1O2
normalized growth: 1

Could you share which normalized growth value was measured for CC(C)CCCC(C)C1CC[C@@]2(C)C3=C(CC[C@]12C)[C@@]1(C)CC[C@H](O)C(C)(C)C1CC3 (stereo partly drawn) ?
0.988

Cool, now NC(Cn1ccc(=O)c(O)c1)C(=O)O (stereo not drawn)
0.984

* * *

ASSAY_REMARKS: chemical genetic growth profiling, strain panel (AID 1159580);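 further: tested at 20 µM; growth read once vehicle control cultures reached saturation at 30 °C; 1 = growth at the plate median or of vehicle wells; lower values mean less growth of the strain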
RECORDED_CONDITIONS: S. cerevisiae deletion strains, growth OD, locus YBR171W, strain sec66, active compounds read low
About 2,000 (36%) of roughly 5,500 compounds were called active. Roughly 18% stayed inconclusive and do not appear here. The list shows a part of the results.
RESULT_TYPE: normalized growth

Check out these entries, answers already filled in.
COMPOUND: COc1cc(C(C)=O)cc(OC)c1O
normalized growth: 1.03 (inactive)

COMPOUND: COC(=O)/C(=C1\OC(=O)C(c2ccccc2)=C1O)c1ccccc1
normalized growth: 0.987 (inactive)

COMPOUND: CC(=O)O[C@@H]1C=C[C@@]2(C)C(C[C@@H](OC(C)=O)[C@@]3(C)C4=CC(=O)O[C@@H](c5ccoc5)[C@]4(C)CCC23)C1(C)C (some centres undefined)
normalized growth: 0.994 (inactive)

Could you share which normalized growth value was measured for CC(=O)O[C@H]1CC[C@@]2(C)C(C[C@@H](OC(C)=O)[C@@]3(C)C4=CC(=O)O[C@@H](c5ccoc5)[C@]4(C)CCC23)C1(C)C (some centres undefined) ?
1 (inactive)

* * *

Listed here: items and their measured normalized growth.
ASSAY_REMARKS: chemical genetic growth profiling, strain panel (AID 1159580);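 further: tested at 20 µM; growth read once vehicle control cultures reached saturation at 30 °C; 1 = growth at the plate median or of vehicle wells; lower values mean less growth of the strain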
RECORDED_CONDITIONS: S. cerevisiae deletion strains, growth OD, locus YNL067W, strain RPL9B, active compounds read low
Out of some 5,500 compounds screened, about 2,000 (36%) were called active. Roughly 18% stayed inconclusive and do not appear here. The list shows a part of the results.
Output: the number by itself.

Could you share which normalized growth value was measured for CC(C)CC1NC(=O)CNC1=O (stereo not given) ?
0.971

Cool, now COC(=O)c1c(OC)cc2c(c1C)Oc1c(Cl)c(O)c(Cl)c(C)c1C(=O)O2
0.895

Cool, now CC(=O)Oc1cccc(O)c1
0.996

* * *

Listed here: items and their measured normalized growth.
ASSAY_REMARKS: chemical genetic growth profiling, strain panel (AID 1159580);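 further: tested at 20 µM; growth read once vehicle control cultures reached saturation at 30 °C; 1 = growth at the plate median or of vehicle wells; lower values mean less growth of the strain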
RECORDED_CONDITIONS: S. cerevisiae deletion strains, growth OD, locus YPL240C, strain hsp82, active compounds read low
Out of some 5,500 compounds screened, about 2,000 (36%) were called active. Inconclusive results (about 18%) are left out. Some of the results follow.
Output: the number by itself.

Check out these entries, answers already filled in.
MOLECULE: NCC(=O)c1ccccc1
normalized growth: 0.996
--
MOLECULE: CC1=CCCC2C1(C)CCC(C)C2(C)CC/C(C)=C/C[n+]1cn(C)c2c(N)ncnc21 (stereo not drawn)
normalized growth: 0.996
--
MOLECULE: CC(=O)O[C@@H]1CC2C(C)(C)[C@H](O)C=C[C@]2(C)C2CC[C@]3(C)C(=CC(=O)O[C@H]3c3ccoc3)[C@@]21C (stereo partly drawn)
normalized growth: 0.995
--
MOLECULE: O=C(OOC(=O)c1ccccc1)c1ccccc1
normalized growth: 0.982
--
MOLECULE: CC(=O)O[C@@H]1C=C[C@@]2(C)C(C[C@@H](OC(C)=O)[C@@]3(C)C4=CC(=O)O[C@@H](c5ccoc5)[C@]4(C)CCC23)C1(C)C (stereo partly drawn)
normalized growth: 0.993

Could you share which normalized growth value was measured for CC(=O)O[C@H]1CCC2(C)C3=C(CCC2C1(C)C)[C@]1(C)CCC(C(C)CCC=C(C)C)[C@@]1(C)CC3 (stereo partly drawn) ?
0.994

Cool, now COC1CC2CCC(C)C(O)(O2)C(=O)C(=O)N2CCCCC2C(=O)OC(C(C)CC2CCC(O)C(OC)C2)CC(=O)C(C)/C=C(\C)C(O)C(OC)C(=O)C(C)CC(C)/C=C/C=C/C=C/1C (stereo not drawn)
0.0583

Cool, now CC(N=C(NC#N)Nc1ccncc1)C(C)(C)C (stereo not drawn)
0.972
